Readings of normalized growth for the listed compounds
Assay: chemical genetic growth profiling, strain panel (AID 1159580);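 note: tested at 20 µM; growth read once vehicle control cultures reached saturation at 30 °C; 1 = growth at the plate median or of vehicle wells; lower values mean less growth of the strain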
Details: S. cerevisiae deletion strains, growth OD, locus YMR205C, strain PFK2, hits give low values
Screen size: about 5,500 compounds; about 2,000 (36%) were called active. About 18% were inconclusive and are not listed. The list shows a part of the results.
Field format: numeric only.

These recorded examples may help you get a feel for the data.
>>> val("COC(=O)C[C@H]1C(C)(C)[C@@H](OC(C)=O)[C@@H]2CC3C4CC(=O)O[C@@H](c5ccoc5)[C@]4(C)CCC3[C@@]1(C)C2=O (stereo not given in full)")
1
>>> val("CCOC(=O)C1=C(C)NC(C)=C(C(=O)OC)C1c1cccc([N+](=O)[O-])c1 (stereo not given)")
0.991
>>> val("CCOc1ccc(Cc2nccc3cc(OCC)c(OCC)cc23)cc1OCC")
0.938
>>> val("N#Cc1ccc2c(c1)N(CCCN1CCC(O)CC1)c1ccccc1S2")
0.935
>>> val("COc1ccc2c(c1)[nH]c1c(C)nccc12")
0.999
>>> val("CC1=C2CCC3C(CC[C@]4(C)C(=O)CCC34)[C@@]2(C)CCC1=O (stereo not given in full)")
0.9
>>> val("CC(=O)OCC(=O)[C@@]1(O)CCC2C3CCC4=CC(=O)CC[C@]4(C)[C@@]3(F)[C@@H](O)C[C@@]21C (stereo not given in full)")
1.02
>>> val("COc1ccc2[nH]cc(CCNC(C)=O)c2c1")
0.979

Req: Any idea what normalized growth was measured for `Cc1nccc2c1[nH]c1ccccc12` ?
Resp: 1.01

Req: Any idea what normalized growth was measured for `c1ccc2c(c1)[nH]c1cnccc12` ?
Resp: 0.977
